# System: E. coli mL308 225
# assay_procedure: In Vitro Anti-Bacterial Activity Assay (MIC), gram negative
# Format: cell-based
# applied_conditions: Escherichia coli, ML308225, 18 h, gram negative bacteria; read-out: Antibiotic Activity Gram − (MIC)
metric: MIC

>  <compound>
CN(C)c1cc(CC2=COc3ccccc3C2)c(O)c2c1C[C@H]1C[C@H]3[C@H](N(C)C)C(O)=C(C(N)=O)C(=O)[C@@]3(O)C(O)=C1C2=O

>  <metric>
MIC

>  <recorded_value>
> 4 mg/L

$$$$

Name the recorded MIC of the compound listed here: CC(=O)/C=C/c1ccc(O)c2c1C[C@H]1C[C@H]3[C@H](N(C)C)C(O)=C(C(N)=O)C(=O)[C@@]3(O)C(O)=C1C2=O
> 4 mg/L

Name the recorded MIC of the compound listed here: CN(C)[C@@H]1C(O)=C(C(N)=O)C(=O)[C@@]2(O)C(O)=C3C(=O)c4c(O)ccc(CNCc5ccc(F)cc5)c4C[C@H]3C[C@@H]12
< 4 mg/L

Name the recorded MIC of the compound listed here: Cc1ccc(/C=C/c2ccc(O)c3c2C[C@H]2C[C@H]4[C@H](N(C)C)C(O)=C(C(N)=O)C(=O)[C@@]4(O)C(O)=C2C3=O)cc1 [drawing 3345]
< 4 mg/L

Name the recorded MIC of the compound listed here: CN(C)[C@@H]1C(O)=C(C(N)=O)C(=O)[C@@]2(O)C(O)=C3C(=O)c4c(O)ccc(-c5cc(F)cc(F)c5)c4C[C@H]3C[C@@H]12
< 4 mg/L

Name the recorded MIC of the compound listed here: C[C@H]1c2ccc(-c3ccc(C=O)c4ccccc34)c(O)c2C(=O)C2=C(O)[C@]3(O)C(=O)C(C(N)=O)=C(O)[C@@H](N(C)C)[C@@H]3[C@@H](O)[C@@H]21
< 4 mg/L

Name the recorded MIC of the compound listed here: CN[C@@]12C(=O)C(C(N)=O)=C(O)[C@@H](N(C)C)[C@@H]1[C@@H](OC)[C@H]1C(=C2O)C(=O)c2c(O)cccc2[C@@H]1C
> 4 mg/L

Name the recorded MIC of the compound listed here: CN(C)[C@@H]1C(O)=C(C(N)=O)C(=O)[C@@]2(O)C(O)=C3C(=O)c4c(O)cc(Cl)c(N)c4C[C@H]3C[C@@H]12
> 4 mg/L

Name the recorded MIC of the compound listed here: CN(C)c1cc(CN2CCC(C(F)F)CC2)c(O)c2c1C[C@H]1C[C@H]3[C@H](N(C)C)C(O)=C(C(N)=O)C(=O)[C@@]3(O)C(O)=C1C2=O
< 4 mg/L

Name the recorded MIC of the compound listed here: CONC(=O)c1cccc(-c2ccc(O)c3c2C[C@H]2C[C@H]4[C@H](N(C)C)C(O)=C(C(N)=O)C(=O)[C@@]4(O)C(O)=C2C3=O)c1
> 4 mg/L

Name the recorded MIC of the compound listed here: CN(C)c1cc(CNc2nc(C(F)(F)F)co2)c(O)c2c1C[C@H]1C[C@H]3[C@H](N(C)C)C(O)=C(C(N)=O)C(=O)[C@@]3(O)C(O)=C1C2=O
< 4 mg/L

Name the recorded MIC of the compound listed here: Cc1ccc(-c2ccc(O)c3c2C[C@H]2C[C@H]4[C@H](N(C)C)C(O)=C(C(N)=O)C(=O)[C@@]4(O)C(O)=C2C3=O)cn1
< 4 mg/L

Name the recorded MIC of the compound listed here: CC1OC(=O)NC1COC(=O)N(Cc1cc(N(C)C)c2c(c1O)C(=O)C1=C(O)[C@]3(O)C(=O)C(C(N)=O)=C(O)[C@@H](N(C)C)[C@@H]3C[C@@H]1C2)CC(C)(C)C (some centres unmarked)
> 4 mg/L

* * *

# Test system: S. aureus RN450
# assay_procedure: In Vitro Anti-Bacterial Activity Assay (MIC), gram positive
# Type: cell-based
# applied_conditions: Staphylococcus aureus, RN450, 18 h, gram positive bacteria; read-out: Antibiotic Activity Gram + (MIC)
Listing: MIC of selected molecules

Consider the reported MIC for these molecules:
>  <molecule>
CN(C)[C@@H]1C(O)=C(C(N)=O)C(=O)[C@@]2(O)C(O)=C3C(=O)c4c(O)ccc(-c5cnccn5)c4C[C@H]3C[C@@H]12

>  <MIC>
< 4 µg/mL

$$$$
>  <molecule>
CN(C)c1ccc(O)c2c1C[C@H]1C[C@H]3[C@H](N(C)C)C(O)=C(C#N)C(=O)[C@@]3(O)C(O)=C1C2=O

>  <MIC>
> 4 µg/mL

$$$$
>  <molecule>
C=C(Cl)c1cc(C(C)(C)C)c(O)c2c1C[C@H]1C[C@H]3[C@H](N(C)C)C(O)=C(C(N)=O)C(=O)[C@@]3(O)C(O)=C1C2=O

>  <MIC>
< 4 µg/mL

$$$$
>  <molecule>
CN(C)[C@@H]1C(O)=C(C(N)=O)C(=O)[C@@]2(O)C(O)=C3C(=O)c4c(O)c(CN5CCCCC5)cc(-c5ccccn5)c4C[C@H]3C[C@@H]12

>  <MIC>
< 4 µg/mL

$$$$
>  <molecule>
CN(C)c1cc(CN2CCC3(CCCC3)CC2)c(O)c2c1C[C@H]1C[C@H]3[C@H](N(C)C)C(O)=C(C(N)=O)C(=O)[C@@]3(O)C(O)=C1C2=O

>  <MIC>
< 4 µg/mL

$$$$

Now take the following molecule into account.
Name the recorded MIC of the molecule listed here: CN(C)c1cc(CNC(=O)C(Cc2ccccc2)N(C)C)c(O)c2c1C[C@H]1C[C@H]3[C@H](N(C)C)C(O)=C(C(N)=O)C(=O)[C@@]3(O)C(O)=C1C2=O (stereo partly drawn)
< 4 µg/mL

* * *

Listing: MIC of selected compounds
# Test system: S. aureus RN450
# assay_procedure: In Vitro Anti-Bacterial Activity Assay (MIC), gram positive
# Format: cell-based
# applied_conditions: Staphylococcus aureus, RN450, 18 h, gram positive bacteria; read-out: Antibiotic Activity Gram + (MIC)

>  <structure_string>
COC(=O)C(=O)Nc1ccc(-c2ccc(O)c3c2C[C@H]2C[C@H]4[C@H](N(C)C)C(O)=C(C(N)=O)C(=O)[C@@]4(O)C(O)=C2C3=O)cc1

>  <assayed_system>
S. aureus RN450

>  <recorded_value>
< 4 µg/mL

$$$$
>  <structure_string>
COc1ccc(-c2ccc3c(c2O)C(=O)C2=C(O)[C@]4(O)C(=O)C(C(N)=O)=C(O)[C@@H](N(C)C)[C@@H]4[C@@H](O)[C@@H]2[C@H]3C)cc1CC1CCCC1

>  <assayed_system>
S. aureus RN450

>  <recorded_value>
> 4 µg/mL

$$$$

Now take the following compound into account.
Name the recorded MIC of the compound listed here: CONC(=O)c1cccc(-c2ccc(O)c3c2C[C@H]2C[C@H]4[C@H](N(C)C)C(O)=C(C(N)=O)C(=O)[C@@]4(O)C(O)=C2C3=O)c1
< 4 µg/mL

* * *

# System: E. coli mL308 225
# assay_procedure: In Vitro Anti-Bacterial Activity Assay (MIC), gram negative
# Assay type: cell-based
# applied_conditions: Escherichia coli, ML308225, 18 h, gram negative bacteria; read-out: Antibiotic Activity Gram − (MIC)
Listing: MIC of selected compounds

Consider the reported MIC for these compounds:
>  <structure_string>
CC1CCN(CC(=O)c2ccc(O)c3c2C[C@H]2C[C@H]4[C@H](N(C)C)C(O)=C(C(N)=O)C(=O)[C@@]4(O)C(O)=C2C3=O)CC1

>  <assayed_system>
E. coli mL308 225

>  <metric>
MIC

>  <recorded_value>
> 4 µg/mL

$$$$
>  <structure_string>
CN(C)c1cc(CN2CCCC2)c(O)c2c1C[C@H]1C[C@H]3[C@H](N(C)C)C(O)=C(C(N)=O)C(=O)[C@@]3(O)C(O)=C1C2=O

>  <assayed_system>
E. coli mL308 225

>  <metric>
MIC

>  <recorded_value>
> 4 µg/mL

$$$$

Name the recorded MIC of the compound listed here: CN(C)[C@@H]1C(O)=C(C(N)=O)C(=O)[C@@]2(O)C(O)=C3C(=O)c4c(O)ccc(-c5cncc(CO)c5)c4C[C@H]3C[C@@H]12
> 4 µg/mL

* * *

# Test system: S. aureus RN450
# assay_procedure: In Vitro Anti-Bacterial Activity Assay (MIC), gram positive
# Assay type: cell-based
# applied_conditions: Staphylococcus aureus, RN450, 18 h, gram positive bacteria; read-out: Antibiotic Activity Gram + (MIC)
metric: MIC

Consider the reported MIC for these molecules:
>  <structure_string>
CN(C)[C@@H]1C(O)=C(C(N)=O)C(=O)[C@@]2(O)C(O)=C3C(=O)c4c(O)ccc(-c5cccnc5)c4C[C@H]3C[C@@H]12

>  <metric>
MIC

>  <recorded_value>
< 4 µg/mL

$$$$
>  <structure_string>
CC(=O)OCC(=O)Nc1ccc(-c2ccc(O)c3c2C[C@H]2C[C@H]4[C@H](N(C)C)C(O)=C(C(N)=O)C(=O)[C@@]4(O)C(O)=C2C3=O)cc1

>  <metric>
MIC

>  <recorded_value>
< 4 µg/mL

$$$$

Now take the following molecule into account.
Name the recorded MIC of the molecule listed here: CN(C)c1cc(CNc2nc(-c3ccc(F)cc3)co2)c(O)c2c1C[C@H]1C[C@H]3[C@H](N(C)C)C(O)=C(C(N)=O)C(=O)[C@@]3(O)C(O)=C1C2=O
> 4 µg/mL
